- Test system: D54 ERlucT glycosylation luciferase reporter, luminescence, 24 h
- method: N-linked glycosylation inhibitors, luciferase reporter, dose response, D54 ERlucT cells, luminescence, cherry-picks (AID 624491);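 further: signal gain reflects blocked N-linked glycosylation of a luciferase reporter; actives raise luciferase signal so AC26 marks activators of the reporter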
recorded-endpoint: AC26

>>> observed_value("O=C(c1ncn(Cc2ccccc2)c1C(=O)N1CCN(c2ccccc2)CC1)N1CCN(c2ccccc2)CC1")
"0.513 µM"
>>> observed_value("CN(C)c1ccc(CNC(=O)C2(C)Cc3c(-c4ccc5c(c4)OCO5)ccnc3O2)cc1 (stereo not given)")
"2.63 µM"
>>> observed_value("COc1ccccc1-n1cnc2cc(NCc3cccs3)ccc21")
"0.141 µM"
>>> observed_value("COc1ccc(S(=O)(=O)Nc2ccc3c(c2)n(C)c(=O)n3C)cc1C")
"9.91 µM"

Give the reported AC26 for Cc1ccc(N2CC(C(=O)Nc3ccc(S(=O)(=O)N4CCOCC4)cc3)CC2=O)cc1Cl (stereo not given) (system: D54 ERlucT glycosylation luciferase reporter, luminescence, 24 h).
3.86 µM

Note, next up: CCCC(=O)Nc1nc2ccc(NC(=O)c3c(F)c(F)c(OC)c(F)c3F)cc2s1
0.974 µM

And the next one, CN(C1=C(NC(=O)c2ccc(Cl)cc2)C(=O)c2ccccc2C1=O)c1ccccc1 ?
3.41 µM

One more compound: O=C(NCc1ccccc1Br)c1cccc2c1C(=O)c1ccc(-c3ccc(OC(F)(F)F)cc3)cc1S2(=O)=O
4.06 µM

What about COc1ccccc1NC(=O)Cn1nnc(C(=O)NCc2cccs2)c1N ?
0.867 µM

Moving on to the next compound: Cc1cc(=O)[nH]c2c(C)cc(S(=O)(=O)N3CCCCC3)cc12
4.41 µM

Origin of measurements: PubChem BioAssay AID624491
